# Test system: Caco-2 (Colon)
# protocol_details: Resazurin antiproliferative assay, 72 h
# Format: cell-based
# condition_notes: read-out: IC50 Caco-2 (Colon); resazurin assay, 72 h, mean ± SDM, n=3
observation_type: IC50 (µM)
Your answer is read as µM, so omit the unit and give the number.

State its IC50 for this molecule: Cc1nc(-[n+]2nc(-c3ccccc3)nn2-c2ccccc2)sc1C.[Br-]
92

---

# Tested on: MDA-MB-231 (Breast)
# protocol_details: Resazurin antiproliferative assay, 72 h
# Format: cell-based
# condition_notes: read-out: IC50 MDA-MB-231 (Breast); resazurin assay, 72 h, mean ± SDM, n=3
observation_type: pIC50
Here pIC50 is given on a logarithmic scale as minus log10 of the concentration in mol/L.

State its pIC50 for this molecule: Cc1nc(-[n+]2nc(-c3ccccc3)nn2-c2ccccc2)sc1C.[Br-] [MTT]
4.32
